# Test system: Neuregulin-1 EGF-like domain
# experimental_protocol: small molecules binding NRG1 EGF domain – biochemical, small-molecule microarray, 635 nm fluorescence, primary screen (AID 1081);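 also: binding of the protein to compounds printed on small-molecule microarray slides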
# stated_conditions: higher = more signal
property: composite z-score
Respond numerically, and do not add a unit to the figure.

Example cases with answers are listed next.
>  <compound>
COc1ccc(C(O)C2C=CC3C(=O)N(c4ccccc4)C(=O)C3N2Nc2ccc([N+](=O)[O-])cc2)c2ccccc12 (configuration not stated)

>  <property>
composite z-score

>  <reported>
1.27

$$$$
>  <compound>
C=C(CCCC)C(=O)CC[C@@H](OC(=O)c1ccccc1-c1ccccc1C(=O)O)c1ccccc1OCCO

>  <property>
composite z-score

>  <reported>
0.0551

$$$$
>  <compound>
CC(C)(C)OC(=O)CC[C@]1(C(=O)NCC(O)CO)N=C(c2ccc(OCCCO)cc2)O[C@H]1c1ccccc1N=[N+]=[N-] (some centres not stated)

>  <property>
composite z-score

>  <reported>
1.17

$$$$
>  <compound>
COCCOC(=O)N1C(=O)[C@@]2(c3ccccc31)[C@H](c1ccc(O)cc1)N1[C@H](c3ccccc3)[C@H](c3ccccc3)OC(=O)[C@H]1[C@@H]2C(=O)N1CCCCCCC1

>  <property>
composite z-score

>  <reported>
1.29

$$$$
>  <compound>
COCCOC(=O)N1C(=O)[C@@]2(c3cc(C#CCC(C(=O)OC)C(=O)OC)ccc31)[C@H](c1ccc(O)cc1)N1[C@H](c3ccccc3)[C@H](c3ccccc3)OC(=O)[C@H]1[C@@H]2C(=O)Nc1nc2ccccc2s1

>  <property>
composite z-score

>  <reported>
1.27

$$$$

Please fill in: composite z-score reported for COC(=O)c1cccc([C@H]2OC(=CC(=O)OC(C)C)C[C@@H](c3cccc(C(=O)OC)c3)O2)c1 = 1.12

// field: composite z-score; key: COc1ccc([Si](C)(C)[C@H]2[C@H](CC(=O)N3Cc4ccccc4C[C@H]3CO)O[C@@]3(C(=O)N(c4ccccc4)c4ccccc43)[C@@H]2C)cc1 ; value = 1.16

Looking up COCCOC(=O)N1C(=O)[C@@]2(c3cc(C#CCC(C(=O)OC)C(=O)OC)ccc31)[C@H](C(=O)Nc1nc3ccccc3s1)[C@H]1C(=O)O[C@H](c3ccccc3)[C@H](c3ccccc3)N1[C@@H]2c1ccc(O)cc1 , I found its composite z-score recorded as 1.3

Data point: COC(=O)[C@@]1(Cc2ccc(OC)cc2)[C@H]2c3cc(C(=O)N4CCCC4)n(CCn4cc([N+](=O)[O-])nc4C)c3C[C@H]2CN1C(=O)c1ccccc1 ; composite z-score = 1.31

Kindly note the recorded composite z-score for COCCCNC(=O)[C@@]1(CCC(=O)OC(C)(C)C)COC(c2ccc(OCCCO)cc2)=N1 , which is 1.21

composite z-score for COCCOC(=O)N1C(=O)[C@@]2(c3cc(C#CCC(C(=O)OC)C(=O)OC)ccc31)[C@H](C(=O)Nc1nc3ccccc3s1)[C@H]1C(=O)O[C@H](c3ccccc3)[C@H](c3ccccc3)N1[C@@H]2c1ccc(OCCO)cc1 is 1.23

// recorded composite z-score for COc1ccc([Si](C)(C)[C@H]2[C@H](CC(=O)N3Cc4ccccc4C[C@H]3CO)O[C@@]3(C(=O)N(C)c4c(Br)cc(C)cc43)[C@@H]2C)cc1 : 1.11

----------
# experimental_protocol: JC-1 mitochondrial signal, unstimulated HepG2 cells – cell-based, JC-1 fluorescence, 24 h, 100 nL compound, profiling panel (AID 1167); also: test concentration not given here
# stated_conditions: HepG2 mitochondrial potential, higher = more signal
property: z-score

>  <molecule>
COCCCNC(=O)[C@@]1(CCC(=O)OC(C)(C)C)COC(c2ccc(OCCCO)cc2)=N1

>  <z-score>
0.195

$$$$
>  <molecule>
COc1ccc(C(=O)Nc2ccc3c(c2)[C@@]2(O[C@H](CCO)[C@@H]([Si](C)(C)c4ccc(OC)cc4)[C@@H]2C)C(=O)N3Cc2ccccc2)cc1

>  <z-score>
-1.9

$$$$
>  <molecule>
CC1CC/C=C\[C@H]2OC34C=CCN(c5ccc(Cl)cc5)C(=O)[C@H]3N(CCCCCCO)C(=O)[C@]4(C)C2C(=O)O1 (stereo not given in full)

>  <z-score>
0.232

$$$$
>  <molecule>
Cc1ccc(C(C)CC(O)C2C=CC3C(=O)N(C)C(=O)C3N2Nc2ccccc2)o1 (stereo not given)

>  <z-score>
-1.35

$$$$
>  <molecule>
COCCOC(=O)N1C(=O)[C@@]2(c3cc(C#CC4(O)CCCCCC4)ccc31)[C@H](c1ccc(O)cc1)N1[C@H](c3ccccc3)[C@H](c3ccccc3)OC(=O)[C@H]1[C@@H]2C(=O)N1CCCCCCC1

>  <z-score>
-0.442

$$$$

Measured z-score, CC(C)(C)N1CC=CC23O[C@@H]4/C=C\CCCOC(=O)C4[C@H]2C(=O)N(CCCCCO)[C@@H]3C1=O (stereo not given in full) : -0.0838

The molecule listed as OCCCC1=CC(c2ccc(CN3CCCC3)cc2)N(Cc2cccc(OC(F)(F)F)c2)CC1 (stereo not given) has a reported z-score of -0.125

Per the records, this molecule ( O=C(NC1CC1)[C@@H]1c2ccccc2C(=O)N(Cc2ccc(OC(F)(F)F)cc2)[C@H]1c1ccc(CO)cc1 ) has z-score equal to 2.35

Short answer for CC(C)N1C(=O)c2ccccc2[C@@H](C(=O)NCC(F)(F)F)[C@@H]1c1ccc(CO)cc1 : z-score was -0.0214

Lookup result for C=C(COC)C(=O)CC[C@@H](OC(C)=O)c1ccccc1OCCO ; measured z-score: 0.143

Briefly, z-score measured for CCCCC(O)C1C=CC2C(=O)N(c3ccccc3)C(=O)C2N1Nc1ccc([N+](=O)[O-])cc1 (stereo not given) : -0.573

----------
A collection of compounds and their measured composite z-score
# System: Plasmodium falciparum Sir2 (PF13_0152, Sir2A)
# experimental_protocol: Plasmodium falciparum Sir2A binding compounds – biochemical, small-molecule microarray, 635 nm fluorescence, primary screen (AID 1098);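 also: score merges spot fluorescence intensity with its signal-to-noise ratio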
# stated_conditions: fluorescence 635 nm, higher = more signal
Answer with a bare number; do not write a unit.

Solved cases (3 shown):
>  <compound>
CN(C)CCCC[C@@H]1NC(=O)[C@@H]2C[C@H](C(=O)NCCCCCN)[C@H](c3cccc(OCCO)c3)N2C1=O

>  <reported>
0.789

$$$$
>  <compound>
N#Cc1ccc(NN2C(C(O)C3CC=CCC3)C=CC3C(=O)N(c4ccccc4)C(=O)C32)cc1 (centres undefined)

>  <reported>
0.602

$$$$
>  <compound>
CN(C)C(=O)[C@@]1(Cc2ccccc2CN=[N+]=[N-])COC(c2ccc(OCCCO)cc2)=N1

>  <reported>
0.508

$$$$

Reported composite z-score for C=CCNC(=O)[C@H]1[C@@H]2C(=O)O[C@@H](c3ccccc3)[C@@H](c3ccccc3)N2[C@@H](c2ccc(OCCO)cc2)[C@]12C(=O)Nc1ccc(C#CC3(O)CCCCCC3)cc12 was 1.19

----------
# tgt: Torsin-1A-interacting protein 1 (Homo sapiens) (UniProt Q5JTV8)
# Sequence (Q5JTV8 whole entry, looked up): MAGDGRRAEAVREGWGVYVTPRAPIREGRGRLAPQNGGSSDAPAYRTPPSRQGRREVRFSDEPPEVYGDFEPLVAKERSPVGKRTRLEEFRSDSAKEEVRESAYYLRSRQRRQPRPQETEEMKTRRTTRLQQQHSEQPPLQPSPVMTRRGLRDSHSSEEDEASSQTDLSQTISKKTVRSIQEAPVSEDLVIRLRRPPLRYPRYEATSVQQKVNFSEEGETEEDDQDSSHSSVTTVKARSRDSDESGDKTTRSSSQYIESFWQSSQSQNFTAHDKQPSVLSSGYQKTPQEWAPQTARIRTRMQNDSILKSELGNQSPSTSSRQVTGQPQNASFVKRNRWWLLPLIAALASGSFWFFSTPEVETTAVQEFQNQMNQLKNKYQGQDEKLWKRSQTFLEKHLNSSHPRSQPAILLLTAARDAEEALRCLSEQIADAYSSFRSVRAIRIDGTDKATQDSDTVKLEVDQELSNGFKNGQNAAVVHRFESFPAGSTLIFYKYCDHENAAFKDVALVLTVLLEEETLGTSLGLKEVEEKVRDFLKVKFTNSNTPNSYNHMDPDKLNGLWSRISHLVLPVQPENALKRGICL
# experimental_protocol: compound microarray binding of lysate hLAP1 – cell lysate, small-molecule microarray, COS7 lysate, 635/667 nm fluorescence, primary screen (AID 1116)
# stated_conditions: 635 nm fluorescence, higher = more signal
Measured composite z-score, listed per entry for reference.
Lab note: jot down the number only; don't add units.

Guide cases for composite z-score, answers given:
>  <molecule>
CC(C)=CCCC=C(C)C(O)C1C=CC2C(=O)N(c3ccccc3)C(=O)C2N1Nc1ccc(C#N)cc1 (stereo not drawn)

>  <composite z-score>
0.217

$$$$
>  <molecule>
O=C1C=C(c2ccccc2)C(=O)C2=C1CC([C@H]1Oc3ccccc3S(=O)(=O)N3CCC[C@@H]13)=CC2

>  <composite z-score>
0.0279

$$$$
>  <molecule>
COC(=O)[C@@]1(Cc2ccc(OC)cc2)[C@H]2c3cc(C(=O)N4CCCC4)n(CCn4cc([N+](=O)[O-])nc4C)c3C[C@H]2CN1C(=O)c1ccccc1

>  <composite z-score>
1.98

$$$$
>  <molecule>
C=CCC(OC(C)=O)[C@@H]1[C@@H](N(Cc2cccc3ccccc23)C(=O)Cc2ccc(OC)cc2)c2cc(OCCCO)ccc2N1C(=O)c1ccc2ccccc2c1 (stereo partly drawn)

>  <composite z-score>
0.119

$$$$
>  <molecule>
NC(=O)N1C(=O)C2C(C1=O)C1C=C(CCCO)C2C(c2ccc(CN3CCCC3)cc2)N1Cc1sc2ccccc2c1Cl (stereo not drawn)

>  <composite z-score>
-0.218

$$$$

Given item CCOC(=O)C1=CC[C@@H](c2ccccc2)N(S(=O)(=O)c2ccc(C)cc2)[C@H]1c1ccccc1I , the value recorded as its composite z-score is 0.911

Lookup result for C=C(COC)C(=O)CC[C@@H](OC(C)=O)c1ccccc1OCCO ; measured composite z-score: 1.28

Briefly, composite z-score measured for O=C1O[C@H](Cc2ccccc2)[C@@H]2[C@H]3C=CCCC=C3CN2[C@H]1Cc1ccc(O)cc1 : -0.0081
